Molecular target: 6XHIS-N98 N94A (Homo sapiens, UniProt Q9H2C2, N94A)
Construct: made in house; host or cells: E. coli BL21
Sequence (Q9H2C2 1-98 N94A): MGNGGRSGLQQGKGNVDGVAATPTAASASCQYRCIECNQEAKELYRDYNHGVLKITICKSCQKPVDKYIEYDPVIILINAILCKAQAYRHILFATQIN
Assay: HTRF phospholipid lipid-binding assay, mutant
Set-up: key: NC, no change
Details: biotinylated lipid; NC = no change vs N98
Property Label: Bio-PL, EC50, M ± S.D.

{"Compound": "CCCCCCCCCCCCCCCCCC(=O)OC[C@H](COP(=O)(O)OC[C@H](N)C(=O)O)OC(=O)CCCCCCCCCCCCCCCCC [PS, phosphatidylserine]", "Result": "NC"}
{"Compound": "CCCCC/C=C\\C/C=C\\CCCCCCCC(=O)OC[C@H](COP(=O)(O)OCC(O)COP(=O)(O)OC[C@@H](COC(=O)CCCCCCC/C=C\\C/C=C\\CCCCC)OC(=O)CCCCCCC/C=C\\C/C=C\\CCCCC)OC(=O)CCCCCCC/C=C\\C/C=C\\CCCCC (stereo partly shown) [CL, cardiolipin]", "Result": "NC"}

Each recorded value in this set is attributed to paper PMC11952846.
